Catalogue of GI50 values
Tested on: SR
Assay: NCI tumour cell line growth inhibition, 48 h
The source made the active and inactive calls. No stated cut-off is given here; in the data, active = GI50 up to about 1.1 µM and inactive = higher.

compound: COc1cc2c(c(OC)c1O)-c1ccc(SC)c(=O)cc1C(NC(C)=O)CC2 (centres undefined)
GI50: 0.0112 µM (active)
--
compound: CC(=O)OCC1OC(n2c(-c3cccs3)c3c(c(C#N)c2=S)-c2ccccc2CC3)C(OC(C)=O)C(OC(C)=O)C1OC(C)=O (centres undefined)
GI50: 3.05 µM (inactive)
--
compound: COc1cccc(Nc2nc(-c3cccs3)nc3cc(OC)c(OC)cc23)c1
GI50: 11 µM (inactive)
--
compound: COc1ccc(C(=O)NCCC2=CCCCC2)cc1
GI50: > 100 µM (inactive)
--
compound: CC(C)c1c(P(=O)(c2ccccc2)c2ccccc2)n(C)c2ccccc12
GI50: 49.9 µM (inactive)
--
compound: COC(=N)C1(C#N)NC(c2ccsc2)C(C#N)(C#N)NC1c1ccsc1 (centres undefined)
GI50: > 100 µM (inactive)
--
compound: O=C1C=CC(=O)c2c1ccc1c3ccccc3n(CCCCCCCCCCCCn3c4ccccc4c4ccc5c(c43)C(=O)C=CC5=O)c21
GI50: 50.5 µM (inactive)
--
compound: Clc1ccc2c(c1)[nH]c1c2nc2ccccn21
GI50: 17.1 µM (inactive)
--
compound: O=C(CCN1CCC(CCO)CC1)Nc1ccc2c(c1)C(=O)c1ccc(NC(=O)CCN3CCC(CCO)CC3)cc1C2=O
GI50: 7.69 µM (inactive)
